- Assay Notes: Oral bioavailability in human
- Condition Context: in vivo, F
Endpoint Label: bioavailability (%)
Respond with the bare value in %.

Compound | bioavailability, %
CC(C)NC[C@H](O)COc1ccc(OCCOCC2CC2)cc1 | 100
COc1ccc(-c2nc(-c3ccc(F)cc3F)[nH]c2-c2ccc(OC)cc2)cc1 [FENFLUMIZOLE] | 50
O=C(O)Cc1nn(-c2ccc(F)cc2)cc1-c1ccc(Cl)cc1 [PIRAZOLAC] | 93.5
COc1ccc(CCN(C)CCCC2(c3ccc(OC)c(OC)c3)S(=O)(=O)CCCS2(=O)=O)cc1OC | 22
CN(C)[C@@H]1C(O)=C(C(N)=O)C(=O)[C@@]2(O)C(O)=C3C(=O)c4c(O)cccc4[C@@](C)(O)[C@H]3C[C@@H]12 [TETRACYCLINE] | 77
CC(C)(C)NC[C@H](O)COc1cccc2c1C[C@H](O)[C@H](O)C2 [S-NADOLOL] | 34

*Q* What does the data say about its bioavailability? Entry: CO/N=C1\CN(c2nc3c(cc2F)c(=O)c(C(=O)O)cn3C2CC2)C[C@@H]1CN
*A* 71

*Q* // bioavailability lookup, key: CCCCNc1cc(C(=O)O)cc(S(N)(=O)=O)c1Oc1ccccc1 [BUMETANIDE]
*A* 81

*Q* Please report the recorded bioavailability for Nc1nc(=O)[nH]cc1F [FLUCYTOSINE] .
*A* 83.5

###

- Assay Notes: Oral bioavailability in human
- Condition Context: in vivo
Quick reference for bioavailability among some compounds
Give your result in % as a bare value.

Check out these entries, answers already filled in.
Compound | Unit Symbol | bioavailability
CC(C)n1c(/C=C/[C@H](O)C[C@H](O)CC(=O)O)c(-c2ccc(F)cc2)c2ccccc21 | % | 24
NS(=O)(=O)c1cc([C@]2(O)NC(=O)c3ccccc32)ccc1Cl [(R)-CHLORTHALIDONE] | % | 64
CN1C(=O)[C@H](O)N=C(c2ccccc2Cl)c2cc(Cl)ccc21 [(S)-LORMETAZEPAM] | % | 75

Next compound, please.
*Q* Could you share which bioavailability value was measured for COC(=O)C1=C(C)NC(C)=C(C(=O)OC)C1c1ccccc1[N+](=O)[O-] ?
*A* 50

###

- Assay Notes: Oral bioavailability in human
- Condition Context: in vivo, F
# maps each entry to its bioavailability
// return the numeric value with its unit appended

Study these solved cases before continuing.
Molecule | Endpoint Label | Readout Value
CN(C)CCc1c[nH]c2ccc(Cn3cncn3)cc12 | bioavailability | 45%
CNC/C=C(\c1ccc(Br)cc1)c1cccnc1 | bioavailability | 66%
CS(=O)(=O)c1ccc(C2=C(c3ccccc3)C(=O)OC2)cc1 | bioavailability | 93%

*Q* Which bioavailability value is on record for COc1cc(N[C@H](C)CCCN)c2ncccc2c1 ?
*A* 96%

*Q* I'd like to know its bioavailability. The molecule in question is CS(=O)(=O)c1ccc2c(c1)N(CCCN1CCC(C(N)=O)CC1)c1ccccc1S2
*A* 19%

*Q* # get_value(readout='bioavailability', item= C[C@H](N/C(=N/c1ccncc1)NC#N)C(C)(C)C )
*A* 57%

*Q* If you can, please state the reported bioavailability value of CC[C@@]1(O)C(=O)OCc2c1cc1n(c2=O)Cc2cc3c(CN(C)C)c(O)ccc3nc2-1 .
*A* 32%

*Q* Request the reported bioavailability associated with CCOC(=O)[C@H](CCc1ccccc1)N[C@@H](C)C(=O)N1Cc2cc(OC)c(OC)cc2C[C@H]1C(=O)O
*A* 13%

*Q* Give the measured bioavailability of CC(=O)[C@]1(O)Cc2c(O)c3c(c(O)c2[C@@H](O[C@H]2C[C@H](N)[C@H](O)[C@H](C)O2)C1)C(=O)c1ccccc1C3=O .
*A* 28%

*Q* Form field: reported bioavailability of CCc1cccc2cc([C@@H](O)CNC(C)(C)C)oc12 [(S)-BUFURALOL]
*A* 46%

*Q* # bioavailability lookup, item Cc1nnc(SCC2=C(C(=O)O)N3C(=O)[C@@H](NC(=O)Cn4cnnn4)[C@H]3SC2)s1
*A* 90%

*Q* For the molecule Cn1cc[nH]c1=S , what bioavailability is on record?
*A* 93%

*Q* I am curious: what bioavailability value has been reported for CCCc1nc(C(C)(C)O)c(C(=O)O)n1Cc1ccc(-c2ccccc2-c2nnn[nH]2)cc1 ?
*A* 26%

*Q* Bench note: what bioavailability did C[C@H]1O[C@@H](O[C@H]2[C@@H](O)C[C@H](O[C@H]3[C@@H](O)C[C@H](O[C@H]4CC[C@@]5(C)[C@H](CC[C@@H]6[C@@H]5C[C@@H](O)[C@]5(C)[C@@H](C7=CC(=O)OC7)CC[C@]65O)C4)O[C@@H]3C)O[C@@H]2C)C[C@H](O)[C@@H]1O show?
*A* 95%

*Q* May I ask what bioavailability has been recorded for CN(C)[C@@H]1C(O)=C(C(N)=O)C(=O)[C@@]2(O)C(O)=C3C(=O)c4c(O)ccc(Cl)c4[C@@](C)(O)[C@H]3C[C@@H]12 ?
*A* 27.5%

*Q* Recorded bioavailability of C[C@@H](C(=O)O)c1ccc(C(=O)c2cccs2)cc1 [(R)-SUPROFEN] , please.
*A* 92%

*Q* Which bioavailability value is on record for O=C1C(O)=C([C@H]2CC[C@H](c3ccc(Cl)cc3)CC2)C(=O)c2ccccc21 ?
*A* 23%

*Q* Entry CCOc1cc(CC(=O)N[C@@H](CC(C)C)c2ccccc2N2CCCCC2)ccc1C(=O)O [REPAGLINIDE] : reported bioavailability = ?
*A* 56%

*Q* Query (molecule): CCCc1nc(C)c2c(=O)[nH]c(-c3cc(S(=O)(=O)N4CCN(CC)CC4)ccc3OCC)nn12 ; field requested: bioavailability
*A* 15%

*Q* Given the molecule CC(C)[C@H]1CC[C@H](C(=O)N[C@@H](Cc2ccccc2)C(=O)O)CC1 [(S)-NATEGLINIDE] , what is its reported bioavailability?
*A* 73%

*Q* Item Cc1nccn1C[C@@H]1CCc2c(c3ccccc3n2C)C1=O [(S)-ONDANSETRON] has what recorded bioavailability?
*A* 62%

*Q* Consider the molecule shown here: CCN(CC)CCC[C@@H](C)Nc1ccnc2cc(Cl)ccc12 [(R)-CHLOROQUINE] What is its recorded bioavailability?
*A* 80%
